test system: NCI-H1048 cells; assay: MTT proliferation assay, NCI-H1048; assay type: cell-based; details: 5 days compound exposure, 1:3 serial dilution starting at 10 μM;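 further: Dose-response in 96-well plates over 8 or 10 concentration points, with exposure spanning 3-4 cell doublings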
*1 amine or outer side, *2 acyl side, *3 side chain or, on linkers, in order; H or OH if unused. Where a SMILES comes first, the peptide text is derived from it. Bridges are numbered along the chain shown (N, C = ends). [ ]: non-standard residue; d: D form. The star is where a group is joined. X97 = CN([C@@H](Cc1cc(Cl)ccc1-c1ccn2ncnc2c1)C(=O)[*:2])[*:1]; NMehhhLys(Me) = CN([C@@H](CCCCCCCN(C)[*:3])C(=O)[*:2])[*:1]; cBuCO(3,3-F2-1-CF3) = O=C(C1(C(F)(F)F)CC(F)(F)C1)*; Pro(trans-4-F) = O=C(O)[C@@H]1C[C@@H](F)CN1; Gly(cPr) = N[C@H](C(=O)O)C1CC1
# GI50 values compiled below

{"compound": "CC(C)C[C@@H]1NC(=O)[C@@H](N(C)C(=O)[C@@H](NC(=O)[C@@H]2C[C@@H](F)CN2C(=O)C2(C(F)(F)F)CC(F)(F)C2)C2CC2)CCCCCCCN(C)C(=O)[C@H](Cc2cc(Cl)ccc2-c2ccn3ncnc3c2)N(C)C1=O [Example 179] ({cBuCO(3,3-F2-1-CF3)}-[Pro(trans-4-F)][Gly(cPr)][NMehhhLys(Me)]L[X97]; lactam 3-C)", "system-tested": "NCI-H1048 cells", "GI50, nM": 10}
{"compound": "CC(C)C[C@@H]1NC(=O)[C@@H](N(C)C(=O)[C@@H](NC(=O)[C@@H]2C[C@@H](F)CN2C(=O)C2(C(F)(F)F)CC(F)(F)C2)C2CC2)CC=CCCCCNC(=O)[C@H](Cc2cc(Cl)ccc2C2=CCN(C(=O)C(C)(C)C)CC2)N(C)C1=O", "system-tested": "NCI-H1048 cells", "GI50, nM": 230}
